- Target Or Test System: NAD-dependent protein deacetylase sirtuin-1 (Homo sapiens) (UniProt Q96EB6)
- Sequence (Q96EB6 whole entry): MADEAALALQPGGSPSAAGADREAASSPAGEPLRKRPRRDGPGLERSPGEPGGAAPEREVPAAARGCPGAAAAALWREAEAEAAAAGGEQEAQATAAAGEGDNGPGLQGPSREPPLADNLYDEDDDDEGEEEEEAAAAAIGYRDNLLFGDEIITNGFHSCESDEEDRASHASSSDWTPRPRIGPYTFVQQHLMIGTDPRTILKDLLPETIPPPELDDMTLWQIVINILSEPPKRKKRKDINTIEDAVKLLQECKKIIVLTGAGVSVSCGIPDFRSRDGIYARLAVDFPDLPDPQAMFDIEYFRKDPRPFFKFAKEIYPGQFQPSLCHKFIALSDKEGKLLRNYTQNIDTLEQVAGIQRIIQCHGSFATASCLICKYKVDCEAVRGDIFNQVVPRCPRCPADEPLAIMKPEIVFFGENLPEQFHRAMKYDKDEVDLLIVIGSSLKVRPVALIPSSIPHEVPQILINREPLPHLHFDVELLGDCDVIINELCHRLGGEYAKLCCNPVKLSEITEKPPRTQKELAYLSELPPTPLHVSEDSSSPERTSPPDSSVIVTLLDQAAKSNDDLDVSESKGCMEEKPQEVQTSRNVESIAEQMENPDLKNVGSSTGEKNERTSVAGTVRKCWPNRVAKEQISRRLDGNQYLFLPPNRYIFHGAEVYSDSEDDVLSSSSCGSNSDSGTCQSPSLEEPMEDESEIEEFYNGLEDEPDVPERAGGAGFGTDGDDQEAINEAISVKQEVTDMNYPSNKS
- Experimental Protocol: Activation of human SIRT1 expressed in Escherichia coli BL21 (DE3) assessed as maximum activation of enzyme activity by fluorescence polarization assay
Property Name: max activation (%)

Some solved cases for reference:
[[record]]
molecule_smiles = "CN(C)c1cccc(C(=O)Nc2ccccc2-c2nc3ncccc3o2)c1"
u = "%"
measured_number = 209

[[record]]
molecule_smiles = "COc1ccc(C(=O)Nc2ccccc2-c2nc3ccccc3[nH]2)cc1OC"
u = "%"
measured_number = 595

[[record]]
molecule_smiles = "COc1ccc(C(=O)Nc2ccccc2-c2nc3ncccc3o2)cc1OC"
u = "%"
measured_number = 170

[[record]]
molecule_smiles = "COc1ccc(C(=O)Nc2ccccc2-c2nc3ncccc3[nH]2)cc1OC"
u = "%"
measured_number = 270

[[record]]
molecule_smiles = "COc1ccc(C(=O)Nc2cccc(-c3nc4ncccc4[nH]3)c2)cc1OC"
u = "%"
measured_number = 324

[[record]]
molecule_smiles = "O=C(Nc1ccccc1-c1nc2ccccc2[nH]1)c1cnc2ccccc2n1"
u = "%"
measured_number = 253

[[record]]
molecule_smiles = "Oc1ccc(/C=C/c2cc(O)cc(O)c2)cc1"
u = "%"
measured_number = 200

[[record]]
molecule_smiles = "COc1ccc(C(=O)Nc2cc(CN(C)C)cc(-c3nc4ncccc4o3)c2)cc1OC"
u = "%"
measured_number = 200


a. COc1cc(OC)cc(C(=O)Nc2ccccc2-c2nc3ccccc3[nH]2)c1
b. O=C(Nc1ccccc1-c1nc2ncccc2[nH]1)c1ccc(N2CCOCC2)cc1
Which has the smaller recorded max activation, a or b ? Lab log: write the label of the selected item as the result.
a
(a: 180%, b: 273%)

====

- Target Or Test System: NAD-dependent protein deacetylase sirtuin-1 (Homo sapiens)
- Experimental Protocol: Activation of human SIRT1 expressed in Escherichia coli BL21 (DE3) assessed as concentration required to increase 50% enzyme activity by fluorescence polarization assay
Property Name: EC1.5 (µM)

[[record]]
molecule_smiles = "COc1ccc(C(=O)Nc2cccc(-c3nc4ncccc4o3)c2)cc1OC"
measured_number = 6

[[record]]
molecule_smiles = "COc1ccc(C(=O)Nc2cc(CN3CCNCC3)cc(-c3nc4ncccc4o3)c2)cc1OC"
measured_number = 1.1


I. CN(C)c1cccc(C(=O)Nc2cccc(-c3nc4ncccc4o3)c2)c1
II. COc1ccc(C(=O)Nc2ccc(-c3nc4ncccc4[nH]3)cc2)cc1OC
Thinking about recorded EC1.5 values, which is higher, I or II ? API: response body contains the label of the selected item.
I
(I: 25 µM, II: 1.6 µM)

I. COc1ccc(C(=O)Nc2ccccc2-c2nc3ccccc3[nH]2)cc1OC
II. CN(C)c1ccc(C(=O)Nc2ccccc2-c2nc3ncccc3[nH]2)cc1
III. CN(C)CCNC(=O)c1cc(NC(=O)c2cccc(N(C)C)c2)cc(-c2nc3ncccc3o2)c1
Task for the reader: rank each entry by its EC1.5, from the minimum upward. A ranking is expressed here by listing the labels in the requested order.
I, II, III

1. O=C(Nc1ccc(CN2CCNCC2)cc1-c1nc2ccccc2[nH]1)c1cnc2ccccc2n1
2. COc1ccc(C(=O)Nc2cccc(-c3nc4ncccc4[nH]3)c2)cc1OC
Which entry shows the lesser value of EC1.5 here, 1 or 2 ? Give the label of your selection.
1
